Every entry's value here was drawn from patent US20100298141A1.

Black Mustard plant response rating values, listed per item
System: mustard
Experiment: Test F preemergence test
Format: in vivo, Brassica nigra
Settings: 62 g ai/ha, Preemergence; scale 0 to 100
OBSERVABLE: Black Mustard plant response rating

>>> observed_measurement("Cc1cc[n+]([O-])c([S+]([O-])Cc2c(C(F)(F)F)nn(C)c2Cl)c1 (racemic)")
90
>>> observed_measurement("CCn1nc(C(F)(F)F)c(CS(=O)(=O)c2cc(C)cc[n+]2[O-])c1OCC(F)(F)F")
80
>>> observed_measurement("Cc1cc([S+]([O-])Cc2c(C(F)(F)F)nn(C)c2OCC(F)(F)F)[n+]([O-])cc1Cl (centres unmarked)")
100
>>> observed_measurement("Cc1cc[n+]([O-])c(S(=O)(=O)C(C)c2c(C(F)(F)F)nn(C)c2OC(F)F)c1 (centres unmarked)")
100
>>> observed_measurement("Cn1nc(C(F)(F)F)c(C[S+]([O-])c2ccc(Cl)c[n+]2[O-])c1OC(F)F (centres unmarked)")
100
>>> observed_measurement("CC(Oc1c(C[S+]([O-])c2cccc[n+]2[O-])c(C(F)(F)F)nn1C)C(F)(F)F (centres unmarked)")
65
>>> observed_measurement("Cn1nc(C(F)(F)F)c(CS(=O)(=O)c2cccc[n+]2[O-])c1OCC(F)(F)F")
100
>>> observed_measurement("CCn1nc(C(F)(F)F)c(CS(=O)(=O)c2cccc[n+]2[O-])c1OCC(F)(F)F")
50
